# Test system: Saccharomyces cerevisiae
# test details: protein stability index of tFT-peptide fusion (C-terminal peptide) (PSI (0-1 scale)); higher = more stable (slower turnover)
# condition summary: genetic background: das1 deletion; temperature: 30 C
Decision: protein stability index compared against 0.4; not below it gives condition met, below it gives condition not met.

Past entries and their recorded results:
[[record]]
chain = "IRRWGRCRVRCM"
cat = "condition met"

[[record]]
chain = "VSPATFLFYFFF"
cat = "condition met"

[[record]]
chain = "LISRLVLVFVIP"
cat = "condition not met"

[[record]]
chain = "VFFLRVHFWSFF"
cat = "condition not met"

[[record]]
chain = "VMRMVWVLGVMC"
cat = "condition not met"


Input: Is protein stability index at least 0.4? Consider "LSGDIPWSFVPV"
Output: condition met

Input: Does the reported protein stability index for "SSVCYFGLLFIV" fall at or above the 0.4 mark?
Output: condition met

Input: Quick check, protein stability index >= 0.4? "KIVNNTKKNKCH"
Output: condition met

Input: Does the reported protein stability index for "VVISRVLAIRLL" fall at or above the 0.4 mark?
Output: condition met

Input: Assess whether reported protein stability index for "QIDYSVYIFALG" sits at 0.4 or higher.
Output: condition not met

Input: Please indicate if the recorded protein stability index for "SYLPSHVYIFLL" meets or exceeds 0.4.
Output: condition not met

---

# Test system: Saccharomyces cerevisiae
# test details: protein stability index of tFT-peptide fusion (C-terminal peptide) (PSI (0-1 scale)); higher = more stable (slower turnover)
# condition summary: genetic background: wild type; temperature: 30 C
property: protein stability index
Answer field: number only, no words.

Input: Could you share which protein stability index value was measured for "GSRRYYFTWVYQ" ?
Output: 0.0885

---

# System: Saccharomyces cerevisiae
# test details: protein stability index of tFT-peptide fusion (C-terminal peptide) (PSI (0-1 scale)); higher = more stable (slower turnover)
# condition summary: genetic background: wild type; temperature: 30 C
property: protein stability index
Lab note: write the figure by itself, no unit.

Check out these entries, answers already filled in.
[[record]]
chain = "SKDVLPGDDNVI"
property = "protein stability index"
value_reported = 0.656

[[record]]
chain = "WGRRGSRGSWGA"
property = "protein stability index"
value_reported = 0.733

[[record]]
chain = "RKKKRKKKKTER"
property = "protein stability index"
value_reported = 0.647


Input: Give Saccharomyces cerevisiae protein stability index for "ARSPLTIGLYPF"
Output: 0.691

Input: What value of protein stability index on Saccharomyces cerevisiae does "RMDIRVWATFCG" have?
Output: 0.705

Input: // map "DWVDFFQSVIWI" to recorded protein stability index (system: Saccharomyces cerevisiae)
Output: 0.761

Input: State its protein stability index on Saccharomyces cerevisiae: "SLPPFPLHSFPV"
Output: 0.694

---

# System: Saccharomyces cerevisiae
# test details: protein stability index of tFT-peptide fusion in wild type (PSI (0-1 scale)); higher = more stable (slower turnover)
# condition summary: genetic background: wild type
property: protein stability index
The answer should be a number; do not append a unit.

Observe how each entry below is paired with its result.
[[record]]
chain = "PDKRNHLIKNLN"
target_desc = "Saccharomyces cerevisiae"
value_reported = 0.473

[[record]]
chain = "RLIQPLPVQQLN"
target_desc = "Saccharomyces cerevisiae"
value_reported = 0.125

[[record]]
chain = "CLWSLPILLFFR"
target_desc = "Saccharomyces cerevisiae"
value_reported = 0.0887

[[record]]
chain = "LRVYLSCVACIN"
target_desc = "Saccharomyces cerevisiae"
value_reported = 0.0194

[[record]]
chain = "RSLRVLMPLYFR"
target_desc = "Saccharomyces cerevisiae"
value_reported = 0.254

[[record]]
chain = "IRWRVGLWRGAS"
target_desc = "Saccharomyces cerevisiae"
value_reported = 0.163

[[record]]
chain = "CLVSLPILLFYR"
target_desc = "Saccharomyces cerevisiae"
value_reported = 0.116

[[record]]
chain = "GLYMCSVGDWFR"
target_desc = "Saccharomyces cerevisiae"
value_reported = 0.677

[[record]]
chain = "PDARNHLIKLLN"
target_desc = "Saccharomyces cerevisiae"
value_reported = 0.12

[[record]]
chain = "AITEPMCPLLLR"
target_desc = "Saccharomyces cerevisiae"
value_reported = 0.593


Input: Lab request: please report protein stability index under test system Saccharomyces cerevisiae for "ARWWVGLWRGAS"
Output: 0.508

Input: // fetch Saccharomyces cerevisiae protein stability index for "RLIQYLPVQFLN"
Output: 0.0219

Input: Short answer please: protein stability index, Saccharomyces cerevisiae, entry "PSLAAEFWRVVG"
Output: 0.168

Input: Field: protein stability index (Saccharomyces cerevisiae). Entry: "PDKRNHLIKLTN"
Output: 0.292

Input: API: value(readout= protein stability index, system= Saccharomyces cerevisiae, query= "RLIQPLPVQGLN" )
Output: 0.659

Input: What reported protein stability index corresponds to "LKILRQKMNYQN" on Saccharomyces cerevisiae?
Output: 0.219

Input: Provide the documented protein stability index with Saccharomyces cerevisiae as the system for "CLVSLPILLFKR"
Output: 0.413

Input: I'm curious: which protein stability index was measured for "GLYMCSVGCAFR" tested on Saccharomyces cerevisiae?
Output: 0.614

Input: So what protein stability index did "AITLPMQPLLLR" get with Saccharomyces cerevisiae?
Output: 0.238

Input: Request - read-out protein stability index | tested on Saccharomyces cerevisiae | sequence "FSMVWTFRYWVN"
Output: 0.0843

---

Recorded measurements of protein stability index, one per entry
# System: Saccharomyces cerevisiae
# test details: protein stability index of tFT-peptide fusion (C-terminal peptide) (PSI (0-1 scale)); higher = more stable (slower turnover)
# condition summary: genetic background: wild type; temperature: 37 C
Lab note: write the figure by itself, no unit.

Consider the following illustrative entries.
[[record]]
chain = "YDVQIEFCVVEV"
target_desc = "Saccharomyces cerevisiae"
value_reported = 0.547

[[record]]
chain = "GLIICRRCLWCC"
target_desc = "Saccharomyces cerevisiae"
value_reported = 0.255

[[record]]
chain = "GGHGGRRRKGVG"
target_desc = "Saccharomyces cerevisiae"
value_reported = 0.439

[[record]]
chain = "VCLWVEVLIVLG"
target_desc = "Saccharomyces cerevisiae"
value_reported = 0.183


Input: Observed protein stability index on Saccharomyces cerevisiae for "SPCFLDPPRLIS" , please.
Output: 0.536

Input: Record lookup: for Saccharomyces cerevisiae, what protein stability index belongs to "KLRIVYAKVVCS" ?
Output: 0.407

Input: I'm curious: which protein stability index was measured for "SWVVLVSFLSWR" tested on Saccharomyces cerevisiae?
Output: 0.424

---

# System: Saccharomyces cerevisiae
# test details: protein stability index of tFT-peptide fusion (C-terminal peptide) (PSI (0-1 scale)); higher = more stable (slower turnover)
# condition summary: genetic background: wild type; temperature: 30 C
Classify by measured protein stability index: YES if it is equal to or exceeds 0.7, NO if it is smaller.

Sample answers from the record:
[[record]]
chain = "APIQPGEDKLKR"
cat = "NO"

[[record]]
chain = "ILLLKFSKLNKK"
cat = "NO"

[[record]]
chain = "GVVGWTAGLRGG"
cat = "YES"

[[record]]
chain = "GGALTADTTIAP"
cat = "NO"

[[record]]
chain = "GGRVWGAVGAGP"
cat = "NO"


Input: Can "ESIEVGTGDWVG" be said to have protein stability index at or above 0.7?
Output: NO

Input: Check if protein stability index >= 0.7 (inclusive). Item: "TCLIFTCVLKFR"
Output: NO

Input: # check: protein stability index of "LSSGSCLESPFT" is greater than or equal to 0.7
Output: YES

Input: Record "VIYNSALLLVRL" ; criterion: protein stability index no lower than 0.7. Met?
Output: NO

Input: Kindly determine if protein stability index recorded for "AKDSSPTFTSPH" is above or exactly 0.7.
Output: NO

Input: Decide: is the reported value of protein stability index for "NVYSVRGPWYGG" equal to or greater than 0.7?
Output: NO

---

# System: Saccharomyces cerevisiae
# test details: protein stability index of tFT-peptide fusion (C-terminal peptide) (PSI (0-1 scale)); higher = more stable (slower turnover)
# condition summary: genetic background: wild type; temperature: 30 C
property: protein stability index

[[record]]
chain = "PLPRLSPFSHPP"
value_reported = 0.701

[[record]]
chain = "PTTQVGRRTPLA"
value_reported = 0.647

[[record]]
chain = "CPAAWSLPCRPP"
value_reported = 0.66


Shifting focus to the sequence that follows.
Input: Param item = "ATDCHVYRPPDL" ; retrieve measured protein stability index.
Output: 0.694

---

# System: Saccharomyces cerevisiae
# test details: protein stability index of tFT-peptide fusion (C-terminal peptide) (PSI (0-1 scale)); higher = more stable (slower turnover)
# condition summary: genetic background: doa10 deletion; temperature: 30 C
Parameter threshold = 0.2. Response is satisfied when protein stability index meets or exceeds it, else not satisfied.

Input: Hello, I need to know if "SARSYLTERLLA" has measured protein stability index not below 0.2. Thanks!
Output: not satisfied

Input: State whether the measured protein stability index reaches 0.2, counting equality as reaching it, for "WFSVFTMSILSR"
Output: satisfied

Input: Given the entry "FGKGRSLLLVFS" , answer whether its protein stability index meets or surpasses 0.2.
Output: satisfied

Input: Is protein stability index for "WALVLLVPVWFD" at or above 0.2?
Output: satisfied

Input: Could you verify whether the entry "TFLCSSLALAVI" shows protein stability index of no less than 0.2?
Output: satisfied

Input: Item "WVVWVLVGGFGG" with protein stability index of 0.2 or above?
Output: satisfied

Input: Hi team, for "FGGVFCVMARLV" , is the recorded protein stability index at or above 0.2?
Output: satisfied

Input: Decide: is the reported value of protein stability index for "LLLCVVLVSVFG" equal to or greater than 0.2?
Output: not satisfied

Input: Is protein stability index for "LLLPVFRFFFVN" at or above 0.2?
Output: not satisfied

Input: Record "YFFFYFFLLFHL" ; criterion: protein stability index no lower than 0.2. Met?
Output: satisfied

Input: Hi, just wondering whether "GIANHAMVIVVL" shows protein stability index of 0.2 or higher.
Output: satisfied
